Origin of values: the Human Domainome abundance scans (Beltran et al. 2025)

B1: Arginine-glutamic acid dipeptide repeats protein, residues 502 to 543; numbered along this chain, Q9P2R6 (parent)
chain: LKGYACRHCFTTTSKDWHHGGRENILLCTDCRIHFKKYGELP

Variants of: B1
method: abundance fitness (aPCA) (normalised: wild type 0, dead -1); higher = more abundant; growth selection in yeast, the domain comes from the species named
settings: Homo sapiens
Here the recorded abundance fitness is given for each entry.
reported-endpoint: abundance fitness

sequence_variant=T29E reported_result=-0.105
sequence_variant=T29V reported_result=-0.154
sequence_variant=D16P reported_result=-0.701
sequence_variant=H34C reported_result=0.05
sequence_variant=C6E reported_result=-0.702
sequence_variant=R32K reported_result=-0.137
sequence_variant=F10T reported_result=-0.099
sequence_variant=G20A reported_result=-0.16
sequence_variant=C6H reported_result=-0.601
sequence_variant=R22W reported_result=-0.132
sequence_variant=L1Q reported_result=-0.245
sequence_variant=T13H reported_result=-0.045
sequence_variant=T12W reported_result=-0.669
sequence_variant=H34W reported_result=-0.001
sequence_variant=K37L reported_result=-0.194
sequence_variant=Y4Q reported_result=-0.273
sequence_variant=G20I reported_result=-0.151
sequence_variant=E40I reported_result=-0.095
sequence_variant=F10L reported_result=-0.068
sequence_variant=K15E reported_result=0.007
sequence_variant=L27F reported_result=-0.444
sequence_variant=H18N reported_result=-0.132
